Catalogue of compounds with associated MIC50
Test system: Mycobacterium marinum
assay protocol: Antimycobacterial activity against Mycobacterium marinum ATCC BAA-535/M assessed as inhibition of mycobacterial growth incubated for 10 to 14 days by resazurin microtiter assay
Format: functional
measurement parameters: time 10-14 day
readout name: MIC50 (µg/mL)

chem_smiles=O=C(/C=C/C=C/c1cccc(C(F)(F)F)c1)NO target_or_system="Mycobacterium marinum" unit_of_measurement=µg/mL value_relation_sign== measurement=10.1
chem_smiles=NNC(=O)/C=C/C=C/c1ccc(C(F)(F)F)cc1 target_or_system="Mycobacterium marinum" unit_of_measurement=µg/mL value_relation_sign=> measurement=100
chem_smiles=O=C(/C=C/c1ccc(-c2ccccc2)cc1)NO target_or_system="Mycobacterium marinum" unit_of_measurement=µg/mL value_relation_sign== measurement=20.8

---

assay protocol: Cytotoxicity against C57BL/6 mouse BMDM cells assessed as reduction in cell viability measured after 24 hrs by resazurin dye based assay
Assay type: toxicity
measurement parameters: C57BL/6, mouse, BMDM cells (bone marrow-derived macrophages)
readout name: CC50 at 24 h

chem_smiles=NNC(=O)/C=C/C=C/c1ccc(C(F)(F)F)cc1 readout_name="CC50 at 24 h" measurement="> 125 µg/mL"
chem_smiles=NNC(=O)/C=C/C=C/c1ccc(F)cc1 readout_name="CC50 at 24 h" measurement="> 125 µg/mL"
chem_smiles=NNC(=O)/C=C/c1ccc(F)cc1 readout_name="CC50 at 24 h" measurement="< 10 µg/mL"
chem_smiles=O=C(/C=C/c1ccncc1)NO readout_name="CC50 at 24 h" measurement="< 10 µg/mL"

---

Listed compounds paired with reported CC50 at 24 h
assay protocol: Cytotoxicity against C57BL/6 mouse BMDM cells assessed as reduction in cell viability measured after 24 hrs by resazurin dye based assay
Format: toxicity
measurement parameters: C57BL/6, mouse, BMDM cells (bone marrow-derived macrophages)
readout name: CC50 at 24 h

chem_smiles=CCCCCCONC(=O)/C=C/C=C/c1ccc(F)cc1 readout_name="CC50 at 24 h" measurement="> 125 µg/mL"
chem_smiles=CCCCCC(=O)ONC(=O)/C=C/C=C/c1ccc(F)cc1 readout_name="CC50 at 24 h" measurement="< 10 µg/mL"
chem_smiles=O=C(/C=C/C=C/c1ccc(-c2ccccc2)cc1)NO readout_name="CC50 at 24 h" measurement="> 125 µg/mL"
chem_smiles=O=C(CCc1ccccc1)NO readout_name="CC50 at 24 h" measurement="95 µg/mL"
chem_smiles=O=C(/C=C/C=C/c1ccc(C(F)(F)F)cc1)NO readout_name="CC50 at 24 h" measurement="< 10 µg/mL"
chem_smiles=CCCCOc1ccc(/C=C/C=C/C(=O)NO)cc1 readout_name="CC50 at 24 h" measurement="> 125 µg/mL"
chem_smiles=O=C(/C=C/C=C/c1cccc(C(F)(F)F)c1)NO readout_name="CC50 at 24 h" measurement="< 10 µg/mL"
chem_smiles=O=C(/C=C/c1ccc2c(c1)OCO2)NO readout_name="CC50 at 24 h" measurement="34 µg/mL"
chem_smiles=NNC(=O)/C=C/c1cccc(C(F)(F)F)c1 readout_name="CC50 at 24 h" measurement="> 125 µg/mL"
chem_smiles=CCCCCC(=O)ONC(=O)/C=C/c1ccc(OC)cc1 readout_name="CC50 at 24 h" measurement="> 125 µg/mL"
